TARGET_UNDER_TEST: EphrinB2-EphB1 (Homo sapiens, UniProt P54762)
Construct: soluble human EphB1-His, EphB2-His, and EphB4-His ectodomains; commercially available human EphrinB1-Fc (EB1), EphrinB2-Fc (EB2), and EphrinB3-Fc (EB3) ectodomain proteins; purchased
METHOD_SUMMARY: Octet, immobilized human EphrinB2 binding to 50 nM soluble human EphB1
CONDITION_LABEL: Table B, EphrinB2-EphB1; read-out: Relative Dissociation IC50 (450 sec)
pIC50: −log10 of the molar value.

MOLECULE: Oc1c(Br)cc(CN2CCN(c3ccc(Br)cc3)CC2)c2cccnc12 [Compound 30]
pIC50: 7.15

----------
TARGET_UNDER_TEST: EphrinB2-EphB1 (Homo sapiens, UniProt P54762)
Construct: soluble human EphB1-His, EphB2-His, and EphB4-His ectodomains; commercially available human EphrinB1-Fc (EB1), EphrinB2-Fc (EB2), and EphrinB3-Fc (EB3) ectodomain proteins; purchased
Sequence (P54762 18-540 limits assumed): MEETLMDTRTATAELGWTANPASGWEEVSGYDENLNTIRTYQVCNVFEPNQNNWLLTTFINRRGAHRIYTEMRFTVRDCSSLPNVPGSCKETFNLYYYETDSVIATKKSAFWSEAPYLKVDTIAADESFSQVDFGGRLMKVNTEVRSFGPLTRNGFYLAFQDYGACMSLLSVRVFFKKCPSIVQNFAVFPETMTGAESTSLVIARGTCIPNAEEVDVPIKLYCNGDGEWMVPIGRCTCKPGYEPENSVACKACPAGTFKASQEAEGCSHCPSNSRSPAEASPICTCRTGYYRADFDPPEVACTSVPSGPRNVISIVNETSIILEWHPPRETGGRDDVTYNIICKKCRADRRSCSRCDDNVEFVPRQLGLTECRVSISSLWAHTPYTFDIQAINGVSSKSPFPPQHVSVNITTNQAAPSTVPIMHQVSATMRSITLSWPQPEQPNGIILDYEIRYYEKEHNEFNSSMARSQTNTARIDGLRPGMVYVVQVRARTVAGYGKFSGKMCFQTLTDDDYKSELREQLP
METHOD_SUMMARY: Octet 80 sec association/500 sec dissociation, immobilized human EphrinB2-Fc binding to soluble human EphB1-His
CONDITION_LABEL: EphB1; Association (75″); read-out: Absolute IC50
pIC50: −log10 of the molar value.
OBSERVATION_TYPE: pIC50

MOLECULE: Oc1c(I)cc(CN2CCOCC2)c2cccnc12 [Compound 7, 7-iodo-5-(morpholinomethyl)quinolin-8-ol]
TARGET_UNDER_TEST: EphrinB2-EphB1 (Homo sapiens, UniProt P54762)
VALUE: < 5.49
//
MOLECULE: Oc1c(Br)cc(CN2CCN(c3ccc(Br)cc3)CC2)c2cccnc12 [Compound 28]
TARGET_UNDER_TEST: EphrinB2-EphB1 (Homo sapiens, UniProt P54762)
VALUE: < 5.49

----------
TARGET_UNDER_TEST: EphrinB2-EphB1 (Homo sapiens)
Construct: soluble human EphB1-His, EphB2-His, and EphB4-His ectodomains; commercially available human EphrinB1-Fc (EB1), EphrinB2-Fc (EB2), and EphrinB3-Fc (EB3) ectodomain proteins; purchased
METHOD_SUMMARY: Octet 80 sec association/500 sec dissociation, immobilized human EphrinB2-Fc binding to soluble human EphB1-His
CONDITION_LABEL: EphB1; Association (75″); read-out: Relative IC50
Overview of recorded IC50 for various compounds
OBSERVATION_TYPE: IC50 (nM)

COMPOUND: Oc1c(I)cc(CN2CCOCC2)c2cccnc12 [Compound 7, 7-iodo-5-(morpholinomethyl)quinolin-8-ol]
UNIT_TEXT: nM
VALUE: 850

COMPOUND: Oc1c(Br)cc(CN2CCN(c3ccc(Br)cc3)CC2)c2cccnc12 [Compound 28]
UNIT_TEXT: nM
VALUE: 100
